assay: Cytotoxicity against human HeLa 229 cells assessed as cell viability at 50 uM after 28 hrs using resazurin staining by fluorescence microscopy; format: cell-based; conditions: read-out: Activity

structure smiles: O=C(N/N=C/c1ccc(Cl)cc1O)c1ccncc1
viability at 28 h, 50 µM: 67%
--
structure smiles: O=C(N/N=C/c1cccc(F)c1O)c1ccc([N+](=O)[O-])cc1
viability at 28 h, 50 µM: 72%
--
structure smiles: O=C(N/N=C/c1cc(Br)ccc1O)c1ccccc1Cl
viability at 28 h, 50 µM: 60%
--
structure smiles: COc1cccc(C(=O)N/N=C/c2cc(Br)ccc2O)c1
viability at 28 h, 50 µM: 65%
--
structure smiles: Cc1ccc(C(=O)N/N=C/c2cc(C(C)(C)C)ccc2O)cc1
viability at 28 h, 50 µM: 79%
--
structure smiles: O=C(Cc1ccccc1)N/N=C/c1cc(Br)ccc1O
viability at 28 h, 50 µM: 74%
--
structure smiles: CC(C)(C)c1ccc(O)c(/C=N/NC(=O)Cc2ccccc2)c1
viability at 28 h, 50 µM: 79%
--
structure smiles: COc1cc(Br)cc(/C=N/NC(=O)Cc2ccccc2)c1O
viability at 28 h, 50 µM: 33%
